molecular target: BCL6-NCOR2(SMRT) corepressor protein-protein interaction (Homo sapiens (Human)); assay: NanoBRET cell assay; format: cell-based; settings: read-out: NanoBRET cell avg pIC50 (converted)
Please assign false whenever IC50 is at or above 200 nM, and true whenever it is below.

Use the examples below as a reference point.
Confirm or reject: IC50 of C[C@H]1COC(=O)c2c(c3cc(Nc4nc(N5C6CCC5CC(F)(F)C6)ncc4Cl)ccc3n(C)c2=O)N1 lies strictly below 200 nM
false

Confirm or reject: IC50 of Cn1c(=O)c2c(c3cc(Nc4nc(N5CC(F)(F)C[C@@H]5CO)ncc4Cl)ccc31)N[C@@H](C1CC1)C(F)(F)CO2 [Example 12x] lies strictly below 200 nM
true

Confirm or reject: IC50 of C[C@@H]1CN(c2ncc(Cl)c(Nc3ccc4c(c3)c3c(c(=O)n4C)C(=O)OC[C@H](C)N3)n2)C[C@H](C)O1 lies strictly below 200 nM
false

More entries:
Confirm or reject: IC50 of C[C@H]1CCOc2c(c3cc(Nc4nc(-n5ccc(C(F)(F)F)n5)ncc4Cl)ccc3n(C)c2=O)N1 lies strictly below 200 nM
false

Confirm or reject: IC50 of Cn1c(=O)c2c(c3cc(Nc4nc(N5C6CCC5CS(=O)(=O)C6)ncc4Cl)ccc31)N[C@@H](C1CC1)CCO2 [Example 12j] lies strictly below 200 nM
false

Confirm or reject: IC50 of Cn1c(=O)c2c(c3cc(Nc4nc(N5CC(C)(C)OC(C)(C)C5)ncc4Cl)ccc31)N[C@@H](C1CC1)CCO2 lies strictly below 200 nM
true

Confirm or reject: IC50 of C[C@H]1COC(=O)c2c(c3cc(Nc4cc(OC5CCOCC5)ncc4Cl)ccc3n(C)c2=O)N1 lies strictly below 200 nM
false

Confirm or reject: IC50 of C[C@H]1CCOc2c(c3cc(Nc4ccnc(Cl)c4Cl)ccc3n(C)c2=O)N1 lies strictly below 200 nM
false

Confirm or reject: IC50 of CN1CCN(c2ncc(Cl)c(Nc3ccc4c(c3)c3c(c(=O)n4C)OCC[C@H](C4CC4)N3)n2)CC1=O [Example 12b] lies strictly below 200 nM
true

Confirm or reject: IC50 of C[C@@H]1CN(c2ncc(Cl)c(Nc3ccc4c(c3)c3c(c(=O)n4C)OCC[C@H](C)N3)n2)C[C@H](C)C1(F)F lies strictly below 200 nM
false

Confirm or reject: IC50 of O=c1c2c(c3cc(Nc4nc(N5C6CCC5COC6)ncc4Cl)ccc3n1CC1CC1)N[C@@H](C1CC1)CCO2 lies strictly below 200 nM
true

Confirm or reject: IC50 of Cn1c(=O)c2c(c3cc(Nc4nc(N5C6COCC5CC(O)C6)ncc4Cl)ccc31)NC(C1CC1)C(F)(F)CO2 (centres unmarked) [Example 11a] lies strictly below 200 nM
true

Confirm or reject: IC50 of Cn1c(=O)c2c(c3cc(Nc4nc(N5CC6CCC(C5)O6)ncc4Cl)ccc31)N[C@@H](C1CC1)CCO2 [Example 12g] lies strictly below 200 nM
false

Confirm or reject: IC50 of C[C@@H]1CN(c2ncc(Cl)c(Nc3ccc4c(c3)c3c(c(=O)n4C)C(=O)OC[C@H](C)N3)n2)C[C@H](C)C1(F)F lies strictly below 200 nM
false

Confirm or reject: IC50 of O=c1c2c(c3cc(Nc4nc(N5C6COCC5CC(O)C6)ncc4Cl)ccc3n1CC1CC(F)(F)C1)N[C@@H](C1CC1)CCO2 (some centres unmarked) lies strictly below 200 nM
true

Confirm or reject: IC50 of CN1CC2CCC(C1)N2c1ncc(Cl)c(Nc2ccc3c(c2)c2c(c(=O)n3C)OCC[C@H](C3CC3)N2)n1 [Example 12i] lies strictly below 200 nM
true

Confirm or reject: IC50 of C[C@@H]1C[C@H](C)CN(c2ncc(Cl)c(Nc3ccc4c(c3)c3c(c(=O)n4C)C(=O)OC[C@H](C)N3)n2)C1 lies strictly below 200 nM
false
